Target: GCS enzyme contained within Golgi preparations isolated from human A375 malignant melanoma skin cells (Homo sapiens, UniProt Q16739)
Construct: endogenous levels of GCS enzyme contained within Golgi preparations isolated from human A375 malignant melanoma skin cells; endogenous in cells
Sequence (Q16739 whole entry): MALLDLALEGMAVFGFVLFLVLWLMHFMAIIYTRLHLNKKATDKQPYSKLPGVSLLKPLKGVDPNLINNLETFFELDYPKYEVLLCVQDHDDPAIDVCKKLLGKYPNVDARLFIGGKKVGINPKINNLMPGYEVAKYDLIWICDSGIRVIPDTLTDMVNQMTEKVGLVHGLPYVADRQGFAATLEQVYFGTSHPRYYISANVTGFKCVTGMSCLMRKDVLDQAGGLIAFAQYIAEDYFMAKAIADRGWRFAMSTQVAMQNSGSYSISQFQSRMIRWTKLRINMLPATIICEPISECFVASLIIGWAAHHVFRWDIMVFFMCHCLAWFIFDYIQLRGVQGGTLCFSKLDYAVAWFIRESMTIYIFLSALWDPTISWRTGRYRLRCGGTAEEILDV
Assay: UDP-Glo glucosylceramide synthase biochemical assay
Settings: crude Golgi preparation from A375 cells; C6 ceramide and UDP-glucose substrates; 20 h incubation at room temperature; UDP detected by luminescence

- Compound: "COc1ncc(C)c(C(=O)Nc2cccc3c2C(=O)N(C(C2CC2)C(C)(C)O)C3)c1C (single isomer, unassigned) [Compound 153]"
  Unit text: "nM"
  EC50: 29
- Compound: "Cn1cc(-c2ccc(-c3cccc4c3C(=O)N([C@H](C3CC3)C(C)(C)O)C4)cc2)nn1 [Compound 94]"
  Unit text: "nM"
  EC50: 24
- Compound: "O=C(Nc1cccc2c1C(=O)N(CC1CC1)C2)c1ccnc2ccc(F)cc12 [Compound 144]"
  Unit text: "nM"
  EC50: 190
- Compound: "Cc1nc(-c2ccc(-c3cccc4c3C(=O)N([C@H](C3CC3)C(C)(C)O)C4)cc2)no1 [Compound 88]"
  Unit text: "nM"
  EC50: 90
- Compound: "Cc1ccc(F)c(C(=O)Nc2cccc3c2C(=O)N(C(C2CC2)C(C)(C)O)C3)c1Cl (single isomer, unassigned) [Compound 110]"
  Unit text: "nM"
  EC50: 0.21
- Compound: "Cn1nc(C(F)(F)F)c2cc(-c3cccc4c3C(=O)N([C@H](C3CC3)C(C)(C)O)C4)ccc21 [Compound 80]"
  Unit text: "nM"
  EC50: 0.39
- Compound: "Cc1nnc(-c2ccc(-c3cccc4c3C(=O)N([C@@H](CO)C3CC3)C4)cc2)o1 [Compound 50]"
  Unit text: "nM"
  EC50: 630

* * *

Biological target: GCS enzyme contained within Golgi preparations isolated from human A375 malignant melanoma skin cells (Homo sapiens)
Construct: endogenous levels of GCS enzyme contained within Golgi preparations isolated from human A375 malignant melanoma skin cells; endogenous in cells
Test: UDP-Glo glucosylceramide synthase biochemical assay
Details: crude Golgi preparation from A375 cells; C6 ceramide and UDP-glucose substrates; 20 h incubation at room temperature; UDP detected by luminescence
Quick list: EC50 per entry.

- Molecule: "O=C(Nc1cccc2c1C(=O)N(C(C1CC1)C1CC1)C2)c1ccnc2[nH]ccc12"
  Unit text: "µM"
  EC50: 0.14
- Molecule: "CC(C)(O)C(C1CC1)N1Cc2cncc(NC(=O)c3ccnc4c3CCC4)c2C1=O (single isomer, unassigned)"
  Unit text: "µM"
  EC50: 0.061
- Molecule: "CC(C)(O)C(C1CC1)N1Cc2ccc(F)c(-c3ccccc3OCC(F)(F)F)c2C1=O (single isomer, unassigned)"
  Unit text: "µM"
  EC50: 0.00091
- Molecule: "CC(C)(O)C(C1CC1)N1Cc2cccc(NC(=O)c3c(Cl)cnc4c3OCO4)c2C1=O (single isomer, unassigned)"
  Unit text: "µM"
  EC50: 0.00049
- Molecule: "CN1Cc2cc(-c3cccc4c3C(=O)N([C@H](C3CC3)C(C)(C)O)C4)ccc2CC1=O"
  Unit text: "µM"
  EC50: 0.04
- Molecule: "Cc1ccc(Cl)c(C(=O)Nc2cccc3c2C(=O)N(C(C2CC2)C(C)(C)O)C3)c1F (single isomer, unassigned)"
  Unit text: "µM"
  EC50: 0.00026
- Molecule: "Cc1cnc2c(c1C(=O)Nc1cccc3c1C(=O)N(C(C1CC1)C(C)(C)O)C3)OCO2 (single isomer, unassigned)"
  Unit text: "µM"
  EC50: 0.0004
- Molecule: "O=C(Nc1ccc(O)c2c1C(=O)N(CC1CC1)C2)c1ccnc2c1CCC2"
  Unit text: "µM"
  EC50: 0.9
- Molecule: "CC(C)[C@H](CO)N1Cc2cccc(NC(=O)c3nc(Cl)ccc3C(F)(F)F)c2C1=O"
  Unit text: "µM"
  EC50: 0.046
- Molecule: "Cc1c(F)cccc1C(=O)Nc1cccc2c1C(=O)N(C(C1CC1)C(C)(C)O)C2 (single isomer, unassigned)"
  Unit text: "µM"
  EC50: 0.0072
- Molecule: "O=C(Nc1cc(Cl)cc2c1C(=O)N(CC1CC1)C2)c1ccnc2c1CCC2"
  Unit text: "µM"
  EC50: 0.18
- Molecule: "Cn1cc(-c2ccc(-c3ccc(O)c4c3C(=O)N([C@H](C3CC3)C(C)(C)O)C4)cc2)cn1"
  Unit text: "µM"
  EC50: 0.0094
- Molecule: "O=C(Nc1cccc2c1C(=O)N(CC1CC1)C2)c1c(C(F)(F)F)cnc2ccccc12"
  Unit text: "µM"
  EC50: 0.04
- Molecule: "Cc1nnc(-c2ccc(-c3cccc4c3C(=O)N([C@H](C3CC3)C(C)(C)O)C4)cc2C)o1"
  Unit text: "µM"
  EC50: 0.00084

# credit: patent US12679807B2
